Origin of the recorded values: patent US20130171070A1

TEST_TARGET: T1, Human factor D (Advanced Research Inc) (human, UniProt P00746 26-253)
T1 construct: Amine-coupled directly to a CM5 chip for BIAcore; also called factor D antigen
T1 sequence (P00746 26-253 limits assumed): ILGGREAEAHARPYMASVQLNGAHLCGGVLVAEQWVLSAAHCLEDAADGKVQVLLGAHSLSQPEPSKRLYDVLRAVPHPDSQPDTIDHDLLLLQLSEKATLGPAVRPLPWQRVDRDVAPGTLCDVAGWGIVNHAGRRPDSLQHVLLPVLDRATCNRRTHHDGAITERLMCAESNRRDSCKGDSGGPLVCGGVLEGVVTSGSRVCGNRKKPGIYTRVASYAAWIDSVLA
ASSAY_PROCEDURE: SPR (BIAcore), human factor D amine-coupled to CM5 chip, Fab as analyte, 1:1 model, global fit
A collection of binders and their measured koff
Record the value in s⁻¹, omitting the unit from your answer.

Please review the entries below; each comes with its answer.
chimeric 166-32 Fab (Fab, V domains shown, Tested as a Fab; also called chimeric Fab) VH: QIQLVQSGPELKKPGETVKISCKASGYTFTNYGMNWVKQAPGKGLKWMGWINTYTGETTYADDFKGRFVFSLETSASTAYLEINNLKNEDMATYFCEREGGVDNWGQGTTLTVSS VL: ETTVTQSPASLSMAIGEKVTIRCITSTDIDDDMNWYQQKPGEPPKLLISGGNTLRPGVPSRFSSSGYGADFVFTIDNMLSEDVADYYCLQSDNLPYTFGGGTRLEIK | 0.0012
humanized anti-Factor D Fab clone #416 (Fab, V domains shown) VH: QVQLVQSGPELKKPGASVKVSCKASGYTFTSYGMNWVRQAPGQGLEWMGWINTYTGETTYADDFKGRFVFSLDTSVSTAYLQISSLKAEDTAVYYCEREGGVNNWGQGTLVTVSS VL: DIQVTQSPSSLSASVGDRVTITCITSTDIDDDMNWYQQKPGKVPKLLISDGNTLRPGVPSRFSGSGSGTDFTLTISSLQPEDVATYYCLQSDSLPYTFGQGTKLEIK | 0.00018

Could you now look at the following binder, please?
The recorded koff for entry humanized anti-Factor D Fab clone #56 (Fab, V domains shown) VH: QVQLVQSGPELKKPGASVKVSCKASGYTFTNYGMNWVKQAPGQGLEWMGWINTYTGETTYADDFKGRFVFSLDTSVSTAYLQISSLKAEDTATYYCEREGGVDNWGQGTLVTVSS VL: DIQVTQSPSSLSASVRDRVTITCITSTDIDDDMNWYQQKPGKVPKLLISGGNTLRPGVPSRFSGSGSGTDFTLTISSLQPEDVATYYCLQSDNLPYTFGQGTKLEIK equals 0.00098
